Exercise: state measured IC50 for each of the compounds provided.
Test system: DU-145
MEASUREMENT NOTES: Antiproliferative activity against human DU-145 cells assessed as reduction in cell viability incubated for 48 hrs by CCk-8 assay
Assay type: functional, cell-based
SETTINGS: DU-145, 48 h

Reference set, count: 4
| SMILES RECORD | IC50 |
| --- | --- |
| C[C@H]1CCC/C=C/[C@@H]2C[C@H](OC(=O)c3ccccc3C(=O)OCCCCOc3ccc(-c4cc(=S)ss4)cc3)C[C@H]2[C@H](OC(=O)c2ccccc2C(=O)OCCCCOc2ccc(-c3cc(=S)ss3)cc2)/C=C/C(=O)O1 | > 40 µM |
| C[C@H]1CCC/C=C/[C@@H]2C[C@H](OC(=O)c3ccccc3C(=O)OCCOc3ccc(-c4cc(=S)ss4)cc3)C[C@H]2[C@H](OC(=O)c2ccccc2C(=O)OCCOc2ccc(-c3cc(=S)ss3)cc2)/C=C/C(=O)O1 | > 40 µM |
| C[C@H]1CCC/C=C/[C@@H]2C[C@H](OC(=O)CCC(=O)Oc3ccc(-c4cc(=S)ss4)cc3)C[C@H]2[C@H](OC(=O)CCC(=O)Oc2ccc(-c3cc(=S)ss3)cc2)/C=C/C(=O)O1 | > 40 µM |
| C[C@H]1CCC/C=C/[C@@H]2C[C@H](O)C[C@H]2[C@H](OC(=O)CCC(=O)OCCCCCCOc2ccc(-c3cc(=S)ss3)cc2)/C=C/C(=O)O1 | 3.64 µM |

For the next question, use this compound.
Asked: Form field - read-out: IC50; system: DU-145; submitted item: C[C@H]1CCC/C=C/[C@@H]2C[C@H](OC(=O)CCC(=O)OCCCCCCOc3ccc(-c4cc(=S)ss4)cc3)C[C@H]2[C@H](OC(=O)CCC(=O)OCCCCCCOc2ccc(-c3cc(=S)ss3)cc2)/C=C/C(=O)O1
Given back: > 40 µM

Data provenance: ChEMBL document CHEMBL5325456
